IC50: recorded values
Test: Inhibition of bovine heart NADH oxidase activity using submitochondrial particle as source of enzyme measured after 4 mins
Format: mitochondria, Bos taurus, Mitochondria
Numeric answer only, unit nM assumed.

Query: # IC50 lookup, item `CCCCCCCCCCS(=O)(=O)N1CCC[C@H]1COCOC[C@@H]1CCCN1S(=O)(=O)CCCOc1ccc(C)cc1`
Reply: 72

###

Test: Inhibition of bovine heart NADH-Q1 oxidoreductase (complex 1) oxidase activity using submitochondrial particle as source of enzyme measured after 4 mins
Type: mitochondria, Bos taurus, Mitochondria
IC50: recorded values
Numeric answer only, unit nM assumed.

structure-notation | IC50 [nM]
O=S(=O)(CCCOc1ccc(I)cc1)N1CCC[C@H]1COCOC[C@@H]1CCCN1S(=O)(=O)CCCOc1ccc(I)cc1 | 26

Switching to the query record.
Query: # IC50 lookup, item `CCCCCCCCCCS(=O)(=O)N1CCC[C@H]1COCOC[C@@H]1CCCN1S(=O)(=O)CCCOc1ccc(I)cc1`
Reply: 40
